test system: OVCAR-8; test: Growth inhibition of human OVCAR8 cells after 48 hrs by SRB protein assay; type: functional; conditions: OVCAR-8, 48 h
assayReadout: GI50 (µM)

// solved cases for GI50 follow
COc1cccc(OC)c1/C=N/NC(=O)Cc1csc2nc(-c3ccc(Br)cc3)cn12 = 11.5
Nc1nc2[nH]cnc2c(=S)[nH]1 = 0.692
O=C(Cc1csc2nc(-c3ccc(Br)cc3)cn12)N/N=C/c1ccccc1O = 2.29
O=C(Cc1csc2nc(-c3ccc(Br)cc3)cn12)N/N=C/c1ccccc1 = 2.34

I: O=C(Cc1csc2nc(-c3ccc(Br)cc3)cn12)N/N=C/c1ccc(O)cc1
II: O=C(Cc1csc2nc(-c3ccc(Br)cc3)cn12)N/N=C/c1ccc(Cl)cc1Cl
Please choose the item with the lower GI50 value from this pair: I and II Pick one; state its label.
I
(I: 7.08 µM, II: 18.6 µM)

###

system: HOP-92; assay: Growth inhibition of human HOP92 cells after 48 hrs by SRB protein assay; type: functional; conditions: HOP-92, 48 h
assayReadout: GI50 (µM)
Write the value in µM as a bare number.

O=C(Cc1csc2nc(-c3ccc(Br)cc3)cn12)N/N=C/c1ccc(O)cc1 = 19.1
Nc1nc2[nH]cnc2c(=S)[nH]1 = 0.741
O=C(Cc1csc2nc(-c3ccc(Br)cc3)cn12)N/N=C/c1ccc(Cl)cc1Cl = 28.2
O=C(Cc1csc2nc(-c3ccc(Br)cc3)cn12)N/N=C/c1ccccc1 = 12.3

Which measured GI50 value corresponds to `O=C(Cc1csc2nc(-c3ccc(Br)cc3)cn12)N/N=C/c1ccccc1O` ?
2.09

Which measured GI50 value corresponds to `COc1cccc(OC)c1/C=N/NC(=O)Cc1csc2nc(-c3ccc(Br)cc3)cn12` ?
13.8

###

tested on: T47D; experiment: Growth inhibition of human T47D cells after 48 hrs by SRB protein assay; assay type: functional
assayReadout: GI50 (µM)

O=C(Cc1csc2nc(-c3ccc(Br)cc3)cn12)N/N=C/c1ccc(O)cc1 = 31.6
O=C(Cc1csc2nc(-c3ccc(Br)cc3)cn12)N/N=C/c1ccccc1 = 37.2
Nc1nc2[nH]cnc2c(=S)[nH]1 [THIOGUANINE] = 2.04

###

test system: CCRF-CEM; test: Growth inhibition of human CCRF-CEM cells after 48 hrs by SRB protein assay; format: functional; settings: read-out: Log TGI (converted)
Property: TGI; scope: individual molecules

O=C(Cc1csc2nc(-c3ccc(Br)cc3)cn12)N/N=C/c1ccccc1 = > 100 µM
COc1cccc(OC)c1/C=N/NC(=O)Cc1csc2nc(-c3ccc(Br)cc3)cn12 = > 100 µM

Shift focus to the following entry.
Which measured TGI value corresponds to `O=C(Cc1csc2nc(-c3ccc(Br)cc3)cn12)N/N=C/c1ccc(Cl)cc1Cl` ?
> 100 µM
